Molecular target: T1, EsCas13d, nuclease-dead (Eubacterium siraeum, UniProt B0MS50, R295A;H300A;R849A;H854A)
T1 sequence: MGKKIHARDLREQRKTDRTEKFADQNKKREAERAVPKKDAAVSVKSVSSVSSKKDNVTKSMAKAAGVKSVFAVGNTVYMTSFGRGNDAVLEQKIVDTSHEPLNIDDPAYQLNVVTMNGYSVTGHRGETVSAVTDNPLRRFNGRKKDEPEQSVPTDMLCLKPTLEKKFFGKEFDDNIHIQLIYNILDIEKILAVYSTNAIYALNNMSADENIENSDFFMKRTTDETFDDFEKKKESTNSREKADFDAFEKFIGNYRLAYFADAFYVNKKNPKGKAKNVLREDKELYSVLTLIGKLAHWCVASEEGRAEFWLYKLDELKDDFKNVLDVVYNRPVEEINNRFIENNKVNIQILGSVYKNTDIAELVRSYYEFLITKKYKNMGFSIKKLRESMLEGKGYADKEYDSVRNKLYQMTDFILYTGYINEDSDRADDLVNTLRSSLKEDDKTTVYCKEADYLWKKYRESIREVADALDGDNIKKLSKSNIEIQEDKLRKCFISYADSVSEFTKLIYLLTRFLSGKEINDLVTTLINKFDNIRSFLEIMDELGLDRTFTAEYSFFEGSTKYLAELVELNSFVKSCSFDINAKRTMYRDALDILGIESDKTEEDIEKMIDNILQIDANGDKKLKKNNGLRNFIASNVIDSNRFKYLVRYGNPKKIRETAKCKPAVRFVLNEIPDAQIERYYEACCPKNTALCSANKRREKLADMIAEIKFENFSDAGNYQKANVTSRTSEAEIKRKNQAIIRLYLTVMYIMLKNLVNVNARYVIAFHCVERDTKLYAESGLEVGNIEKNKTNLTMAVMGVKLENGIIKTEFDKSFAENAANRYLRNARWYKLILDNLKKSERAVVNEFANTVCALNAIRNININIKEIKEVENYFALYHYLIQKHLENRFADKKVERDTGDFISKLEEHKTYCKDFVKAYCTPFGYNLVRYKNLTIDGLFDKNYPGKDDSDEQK
Assay: crRNA (strand 1, pre-loaded); Mg2+; 40 mM Tris-HCl pH 7.5, 150 mM NaCl, 6 mM MgCl2, 1 mM DTT, 0.1% Tween-20, 0.2 mg/ml BSA; 25 C; 10 min per concentration, then washed
Settings: tags: His6-TwinStrep-SUMO cleaved; N-terminal SNAP kept (SNAP-Surface 488); label: 3' end held by stalled T7 RNA polymerase
RECORDED METRIC: Kd

BINDER: target 1 C2U,U3A (mixed) RNA 1: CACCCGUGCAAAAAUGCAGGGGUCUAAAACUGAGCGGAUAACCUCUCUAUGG RNA 2: GGGAAUGGAUCCACAUCUACGAAUUCGUACCAUAGAGAGGUUAUCCGCAUACCGAGAUCGGAAGAGCACACGU
Kd: 16.1 nM
--
BINDER: target 1 U11C,G12A (mixed) RNA 1: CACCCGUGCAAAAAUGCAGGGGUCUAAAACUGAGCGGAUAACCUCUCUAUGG RNA 2: GGGAAUGGAUCCACAUCUACGAAUUCGUACCAUAGAGAGACUAUCCGCUCACCGAGAUCGGAAGAGCACACGU
Kd: 8.9 nM

Query block: Quick check: Kd of target 2 MT 5'PFS CAC 3'PFS CGA (mixed) RNA 1: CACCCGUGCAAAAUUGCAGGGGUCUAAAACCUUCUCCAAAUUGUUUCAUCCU RNA 2: GGGAAUGGAUCCACAUCUACGAAUUCCACAGGAUGAAACAAUUUGGAGAAGCGAAGAUCGGAAGAGCACACGU ?
Result block: 3.01 nM

Query block: Return reported Kd; argument: target 3 U22G (mixed) RNA 1: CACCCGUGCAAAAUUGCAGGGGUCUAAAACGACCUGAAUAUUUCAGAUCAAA RNA 2: GGGAAUGGAUCCACAUCUACGAAUUCGUUGUUGAUCUGAAAUAUUCAGGUCUGCAGAUCGGAAGAGCACACGU
Result block: 61 nM
